# testDescription: blockers of RIG-like receptor reporter activation – cell-based, Sendai virus stimulus, luciferase, 10K MLSCN set, TLR/RLR signaling modifier project, primary screen (AID 602276);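 also: firefly luciferase from ISG56 promoter only with Renilla not read in this screen; 0% = Sendai virus plus DMSO and 100% = medium plus DMSO without virus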
# protocolConditions: HEK293 RL24 IRF3 luciferase reporter, at 10 µM, hits give high values
Recorded inhibition for the following compounds
Record the value in %, omitting the unit from your answer.

These recorded examples may help you get a feel for the data.
[
  {
    "compound": "CCn1cc(C(=O)N=c2sc3ccccc3n2C)c(=O)c2ccc(C)nc21",
    "unitString": "%",
    "val": 6.49
  },
  {
    "compound": "CCOCCCNC(=O)Cn1ncc2c(=O)oc3ccccc3c21",
    "unitString": "%",
    "val": 5.54
  },
  {
    "compound": "CCN(CC)S(=O)(=O)c1ccc2c(c1)nc(SCC(=O)NC1CC1)n2-c1ccccc1OC",
    "unitString": "%",
    "val": 14.2
  },
  {
    "compound": "COc1cccc(C2C3=C(N=C4SCC(=O)N42)c2ccccc2CC3)c1OC (centres undefined)",
    "unitString": "%",
    "val": -0.493
  }
]

**Query** Given the entry COCCn1c(SCC(=O)Nc2cccc(OC)c2)nnc1-c1ccccc1 , report its measured inhibition.
**Result** -0.479

**Query** What does the data say about its inhibition? Entry: O=C1CCCCCN1CSc1nc2ccccc2s1
**Result** 18.8

**Query** Data request, read-out inhibition, for Nc1sccc1C(=O)c1ccc(Cl)cc1
**Result** 2.24

**Query** Tell me the measured inhibition of CC1(C)CNC(=O)CC(C)(C)N1O , please.
**Result** -4.83

====

compounds and their reported NADPH fluorescence slope
# experimentalSystem: Voltage-gated potassium channel subunit beta-2 (Rattus norvegicus)
# testDescription: enhancers of rat Kvbeta2 NADPH turnover – biochemical, NADPH fluorescence, primary screen (AID 623);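 also: fluorescence intensity change per second fitted from 20 to 320 s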
# protocolConditions: Recombinant KvBeta, NADPH fluorescence decrease slope, 10 min; at 10 µM; hits give low values
Number only, no unit.

[
  {
    "compound": "CCCc1nc(NCc2ccncc2)c2nnn(Cc3ccccc3F)c2n1",
    "val": -0.000136
  }
]

**Query** What value of NADPH fluorescence slope has been reported for the following compound? CCCCn1c(NCCC)nc2c1c(=O)[nH]c(=O)n2C
**Result** -0.000106

**Query** Please report the recorded NADPH fluorescence slope for COc1ccc(S(=O)(=O)N(C)C2CCN(C)CC2)cc1 .
**Result** -5.5e-05

**Query** Would you mind telling me what NADPH fluorescence slope value was observed for Cc1ccc(OCCN2CCN(C(=O)CCC(=O)Nc3nnc(C)s3)CC2)cc1 ?
**Result** -6.3e-05

**Query** GET /values?readout=NADPH fluorescence slope&item= OC(CCN1CCOCC1)(c1ccc(Cl)cc1)C1CCCCC1 (stereo unspecified)
**Result** -2.6e-05

====

# testDescription: reduction of polyQ htt aggregates in cells – imaging, exon1htt(103Q)mCFP cells, high-content imaging, primary screen (AID 483);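 also: compound exposure lasted 3 days before fixation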
# protocolConditions: exon1htt(103Q)mCFP cell line, aggregate imaging, at 2 µM; hits give high values
observedProperty: inhibition of aggregation (%)
A number alone suffices; assume %.

[
  {
    "compound": "CCOc1ccc2[nH]c(=O)c(CN(Cc3nnnn3CCc3ccccc3)CC3CCCO3)cc2c1 (stereo not given)",
    "observedProperty": "inhibition of aggregation",
    "unitString": "%",
    "val": -4.9
  },
  {
    "compound": "CCOC(=O)c1cnn(-c2cc(C)nc3c(-c4ccccc4)c(C)nn23)c1N",
    "observedProperty": "inhibition of aggregation",
    "unitString": "%",
    "val": 7.9
  },
  {
    "compound": "CCN1C(=O)c2cccc3c(NC(=O)c4ccc5c(c4)OCCO5)ccc1c23",
    "observedProperty": "inhibition of aggregation",
    "unitString": "%",
    "val": 4.6
  },
  {
    "compound": "CCOc1ccc(-c2nc(C#N)c(N3CCCCCC3)o2)cc1",
    "observedProperty": "inhibition of aggregation",
    "unitString": "%",
    "val": 11.5
  },
  {
    "compound": "CCCOc1ccc(S(=O)(=O)NCCCN2CCOCC2)c2ccccc12",
    "observedProperty": "inhibition of aggregation",
    "unitString": "%",
    "val": -33.7
  }
]

**Query** Record request: inhibition of aggregation value, item N#Cc1ccccc1Cn1c(=O)n(Cc2ccc(C(=O)NCc3ccco3)cc2)c(=O)c2ccccc21
**Result** -4.5

**Query** Entry O=C(C1CCCN(S(=O)(=O)c2cccnc2)C1)N1CCn2c1nc1ccccc12 (stereo not given) has what inhibition of aggregation?
**Result** -20.6

**Query** Record request: inhibition of aggregation value, item CC(C)(C)c1cc(CCC(=O)N2CCNCC2)c(C(C)(C)C)cc1O
**Result** 18.7

**Query** Entry C#CCNc1c(C)c(C)nc2ncnn12 has what inhibition of aggregation?
**Result** 32.2

**Query** # query: inhibition of aggregation of entry Nc1c(S(=O)(=O)c2cccs2)c2nc3ccccc3nc2n1CC1CCCO1 (stereo not given)
**Result** -6
